Give pKd for every item shown.
- Experimental System: human galectin-3C (Gal-3C, C-terminal CRD of galectin-3) (Homo sapiens, UniProt P17931)
- Construct: only the C-terminal domain was used (Gal-3C); 6xHis tag with TEV protease site (N, cleaved yes); made in house; host or cells: BL21 Escherichia coli (pET-15b)
- Sequence (P17931 118-248 limits assumed): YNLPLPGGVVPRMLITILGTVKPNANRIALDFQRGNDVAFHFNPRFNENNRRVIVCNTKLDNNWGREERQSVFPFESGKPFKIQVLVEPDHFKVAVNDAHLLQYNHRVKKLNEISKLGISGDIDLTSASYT
- Experiment: Competitive fluorescence polarization assay, Gal-3C
- Format: binding
- Condition Parameters: competitive fluorescence polarization; mean ± SD; read-out: Kd Gal-3C
Just so you know, pKd here is -log10 of the concentration in molar units; reply with that number alone.

I would be grateful if you could share the reported pKd for CC(=O)N(c1cccc(C(=O)O)c1)[C@@H]1O[C@H](CO)[C@@H](O[C@@H]2O[C@H](CO)[C@H](O)[C@H](O)[C@H]2O)[C@H](O)[C@H]1O [Compound 3r] .
4.39

Data request, read-out pKd, for CC(=O)N(c1ccc(I)cc1)[C@@H]1O[C@H](CO)[C@@H](O[C@@H]2O[C@H](CO)[C@H](O)[C@H](O)[C@H]2O)[C@H](O)[C@H]1O [Compound 3l]
3.96

Which pKd value is on record for COC(=O)c1cccc(N(C(C)=O)[C@@H]2O[C@H](CO)[C@@H](O[C@@H]3O[C@H](CO)[C@H](O)[C@H](O)[C@H]3O)[C@H](O)[C@H]2O)c1 [Compound 3v] ?
4.02

Form field: reported pKd of COC(=O)c1cc(N(C(C)=O)[C@@H]2O[C@H](CO)[C@@H](O[C@@H]3O[C@H](CO)[C@H](O)[C@H](O)[C@H]3O)[C@H](O)[C@H]2O)c2cc[nH]c2c1 [Compound 3ae]
4.80

Reported pKd, compound CC(=O)N(c1ccccc1)[C@@H]1O[C@H](CO)[C@@H](O[C@@H]2O[C@H](CO)[C@H](O)[C@H](O)[C@H]2O)[C@H](O)[C@H]1O [Compound 3a] : ____
3.96

// returns reported pKd for input C#Cc1cccc(N(C(C)=O)[C@@H]2O[C@H](CO)[C@@H](O[C@@H]3O[C@H](CO)[C@H](O)[C@H](O)[C@H]3O)[C@H](O)[C@H]2O)c1 [Compound 3c]
3.74

Would you mind telling me what pKd value was observed for COc1ccc(N(C(C)=O)[C@@H]2O[C@H](CO)[C@@H](O[C@@H]3O[C@H](CO)[C@H](O)[C@H](O)[C@H]3O)[C@H](O)[C@H]2O)cc1 [Compound 3m] ?
3.85

// lookup pKd for O=C(O)c1cccc(N(C(=O)Cc2ccccc2)[C@@H]2O[C@H](CO)[C@@H](O[C@@H]3O[C@H](CO)[C@H](O)[C@H](O)[C@H]3O)[C@H](O)[C@H]2O)c1 [Compound 3u]
4.27

Any idea what its pKd is? The compound is COc1cc(N(C(C)=O)[C@@H]2O[C@H](CO)[C@@H](O[C@@H]3O[C@H](CO)[C@H](O)[C@H](O)[C@H]3O)[C@H](O)[C@H]2O)cc(OC)c1OC [Compound 3o]
4.12

I'd like to know its pKd. The compound in question is CC(=O)N(c1ccc(C)cc1)[C@@H]1O[C@H](CO)[C@@H](O[C@@H]2O[C@H](CO)[C@H](O)[C@H](O)[C@H]2O)[C@H](O)[C@H]1O [Compound 3b]
3.89
